Hey, just so you know, these numbers are from the supplement of paper PMC10266784.

B1: library; numbered along this chain (parent)
chain: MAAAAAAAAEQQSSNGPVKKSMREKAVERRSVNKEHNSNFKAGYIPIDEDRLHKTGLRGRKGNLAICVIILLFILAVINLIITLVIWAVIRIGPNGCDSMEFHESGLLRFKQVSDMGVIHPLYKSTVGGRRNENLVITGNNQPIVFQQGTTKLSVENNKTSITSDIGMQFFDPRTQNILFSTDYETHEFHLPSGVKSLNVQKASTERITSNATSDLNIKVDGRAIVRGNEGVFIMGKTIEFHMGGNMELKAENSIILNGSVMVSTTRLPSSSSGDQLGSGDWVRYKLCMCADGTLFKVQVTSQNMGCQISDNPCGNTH

variants of: B1; experiment: SGCB cell-surface expression functional score (HA stain, bin4 vs bin1, normalised to synonymous) (log10 ratio); higher = more cell-surface SGCB (functional)
Hi, to clarify the labels: T covers SGCB cell-surface expression functional score (log10) from -0.2 upward, F covers anything below -0.2.

* L295Q | T
* E252H | T
* P121A | T
* D50W | F
* S154N | F
